# credit: patent US7964531B2

System: transplanted paddy-field rice
Experiment: Test Example 1: crop injury against transplanted paddy-field rice
Format: in vivo
Details: chemical dosage 12.5 g/a; wettable powder applied 3 days after transplanting; judged after 25 days
Catalogue of compounds with associated Crop injury against transplanted rice

- COc1ccccc1Oc1nnc(Cl)cc1O: 0 (Growth inhibition rate; 0 to 10%)
- Cc1cc(Oc2nnc(Cl)cc2O)cc(C(C)C)c1: 0 (Growth inhibition rate; 0 to 10%)
- Oc1cc(Cl)nnc1Oc1ccccc1C1CCCC1: 0 (Growth inhibition rate; 0 to 10%)

Now take the following compound into account.
Query: Given the entry "CCCc1c(C)cc(C)cc1Oc1nnc(Cl)cc1O" , report its measured Crop injury against transplanted rice.
Response: 0 (Growth inhibition rate; 0 to 10%)
